- Read-out: Interferon-gamma inducible Protein 10 (IP10), CXCL10 (gene 3627)
- experimentalDetails: BSK_BE3C_IP10: BioMAP Diversity Plus: BE3C Assay for Interferon-gamma inducible Protein 10 (IP10) Biomarker Activity (AID 2283034)
- testSettings: primary human bronchial epithelial cells; actives raise or lower the signal
Calls of active or inactive are those of the source. How the source made its calls: active means hit-call score of the fitted dose curve at least 0.9, where 1 is the maximum; inactive means score below 0.9.
Select the correct class. Options are true (active), false (inactive) and nothing else.

Example entries and their recorded answers appear below.
# molecule, categoryLabel
data = [
    ("COc1ccc(C(=O)c2ccccc2O)c(O)c1", "false"),
    ("CCC(C)=NO", "false"),
]

Turning now to a further record.
Please state the recorded outcome for this molecule: CCCCCCCCCCC1CO1 (stereo not drawn)
true

###

- targetEntity: Cellular tumor antigen p53 (Homo sapiens) (UniProt P04637)
- Sequence (P04637 whole entry, looked up): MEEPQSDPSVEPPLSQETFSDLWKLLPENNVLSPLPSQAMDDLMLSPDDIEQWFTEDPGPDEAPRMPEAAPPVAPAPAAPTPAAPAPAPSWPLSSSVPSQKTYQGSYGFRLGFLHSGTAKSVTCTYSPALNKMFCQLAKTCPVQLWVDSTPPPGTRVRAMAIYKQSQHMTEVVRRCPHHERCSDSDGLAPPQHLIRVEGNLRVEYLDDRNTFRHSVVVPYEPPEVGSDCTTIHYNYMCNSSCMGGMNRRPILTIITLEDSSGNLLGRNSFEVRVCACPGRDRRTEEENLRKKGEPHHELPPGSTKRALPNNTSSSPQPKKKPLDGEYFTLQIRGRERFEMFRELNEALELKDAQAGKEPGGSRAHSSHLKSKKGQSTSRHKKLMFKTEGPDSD
- experimentalDetails: TOX21_p53_BLA_p5_ratio: Tox21 HCT-116 p53 Agonism Beta-lactamase Assay, Ratio, Phase 5 (AID 2283599)
Results filed as inconclusive are left out. The source made the active and inactive calls. How the source made its calls: active means hit-call score of the fitted dose curve at least 0.9, where 1 is the maximum; inconclusive means response in the unintended direction; inactive means score below 0.9.
Select the correct class. Options are 1 for active, -1 for inactive and nothing else.

Example entries and their recorded answers appear below.
# molecularString, categoryLabel
rows = [
    ("CCOc1ccc2nc(N)sc2c1", -1),
    ("CN(Cc1cc(Br)cc(Br)c1N)C1CCCCC1", -1),
    ("CCOC(=O)COc1ccc2c(=O)cc(-c3ccccc3)oc2c1", -1),
    ("C[C@H](O)[C@H](O)[C@H]1CNc2nc(N)[nH]c(=O)c2N1", -1),
]

Please state the recorded outcome for this molecule: O=c1cccccc1O
-1

###

- targetEntity: Myc proto-oncogene protein (Homo sapiens) (UniProt P01106)
- Sequence (P01106 whole entry, looked up): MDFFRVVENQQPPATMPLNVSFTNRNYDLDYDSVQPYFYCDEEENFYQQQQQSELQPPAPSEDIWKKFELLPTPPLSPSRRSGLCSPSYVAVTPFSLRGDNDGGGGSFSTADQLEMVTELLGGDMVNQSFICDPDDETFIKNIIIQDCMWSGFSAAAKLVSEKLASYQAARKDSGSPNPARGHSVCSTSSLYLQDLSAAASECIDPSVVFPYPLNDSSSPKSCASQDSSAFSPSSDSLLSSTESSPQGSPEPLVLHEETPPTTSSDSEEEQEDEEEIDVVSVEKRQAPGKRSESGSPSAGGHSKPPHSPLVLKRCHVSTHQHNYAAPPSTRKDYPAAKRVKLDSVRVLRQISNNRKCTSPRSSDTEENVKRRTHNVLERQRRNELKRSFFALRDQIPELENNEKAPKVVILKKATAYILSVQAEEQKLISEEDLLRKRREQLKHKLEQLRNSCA
- experimentalDetails: ATG_Myc_CIS: Attagene CIS-FACTORIAL HepG2 Assay for human Myelocytomatosis (Myc) Proto-Oncogene Transcription Factor (AID 2282990)
- testSettings: HepG2, Attagene cis-reporter transcription factor activity; actives raise or lower the signal
- Method: ATG_CIS is a cell-based, multiplexed-readout assay that uses HepG2, a human liver cell line, with measurements taken at 24 hours after chemical dosing in a 24-well plate.ATG_Myc_CIS is one of 52 assay component(s) measured or calculated from the ATG_CIS assay. […] This assay endpoint, ATG_Myc_CIS, was analyzed with bidirectional fitting relative to DMSO as the negative control and baseline of activity. […]
Activity calls are given as the source filed them. Rule for the calls: active = hit-call score of the fitted dose curve at least 0.9, where 1 is the maximum; inactive = score below 0.9.
Select the correct class. Options are active, inactive and nothing else.

# compound, categoryLabel
records = [
    ("O=C(C(=O)c1ccccc1)c1ccccc1", "inactive"),
    ("c1ccc2c(c1)Oc1ccccc1S2", "inactive"),
]

Please state the recorded outcome for this compound: CCC(C)NC(N)=O (stereo unspecified)
inactive

Then CC(O)(P(=O)(O)O)P(=O)(O)O ?
inactive

Then CCCCn1cc[n+](C)c1 ?
inactive

Then CC[N+](CC)(CC(=O)Nc1c(C)cccc1C)Cc1ccccc1 ?
inactive

Then CCCCCCCCCCCCCC ?
inactive

Then CC(C)=CCOC(=O)c1ccccc1 ?
inactive

Then Cc1ccccc1S(N)(=O)=O ?
inactive

Then COc1cccc(OC)c1C(=O)O ?
inactive

Then O=C(Oc1ccccc1)c1ccccc1 ?
inactive

Then Cc1cc(O)cc(C)c1Cl ?
inactive

Then CCO[Si](OCC)(OCC)c1ccccc1 ?
inactive

###

- experimentalDetails: ATG_FoxO_CIS: Attagene CIS-FACTORIAL HepG2 Assay for human Forkhead box O (FoxO) (AID 2282943)
- testSettings: HepG2 Attagene cis-reporter, FoxO element, mRNA; actives raise or lower the signal
Active and inactive are the calls of the source. How the source made its calls: active means hit-call score of the fitted dose curve at least 0.9, where 1 is the maximum; inactive means score below 0.9.
Select the correct class. Options are t (active), f (inactive) and nothing else.

Please state the recorded outcome for this compound: CCCCCCCCCC/C=C/C1CC(=O)OC1=O (configuration not stated)
f

Then CCO[Si](CCCN)(OCC)OCC ?
f

Then Nc1ccc(S(=O)(=O)Nc2cnc3ccccc3n2)cc1 ?
f

Then O=[N+]([O-])c1ccccc1C(F)(F)F ?
f

Then COc1ccccc1OCC(O)CO (configuration not stated) ?
f

Then CCCCOC(=O)COc1ccc(Cl)cc1Cl ?
f

Then CNC(=C[N+](=O)[O-])NCCSCc1csc(CN(C)C)n1 ?
f

Then CC(C)n1c(/C=C/[C@@H](O)C[C@@H](O)CC(=O)O)c(-c2ccc(F)cc2)c2ccccc21 ?
f

Then CC1=C(CC=O)C(C)(C)CCC1 ?
f

Then CC(=O)Nc1c(I)c(NC(C)=O)c(I)c(C(=O)O)c1I ?
f

###

- System: TTR (gene 7276)
- experimentalDetails: CCTE_GLTED_hTTR_0.125uM: CCTE's human Transthyretin (hTTR) Inhibition Assay, with 0.125uM TTR, Great Lakes Toxicology and Ecology Division (GLTED) Lab (AID 2284431);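 further: hits lower the fluorescence signal relative to DMSO baseline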
Calls of active or inactive are those of the source. The calls were made as follows: active = hit-call score of the fitted dose curve at least 0.9, where 1 is the maximum; inactive = score below 0.9.
measuredParameter: AC50

# compound, result
data = [
    ("Oc1cccc2ccccc12", "3.07 µM (active)"),
    ("CCCCCC[C@@H](O)C/C=C\\CCCCCCCC(=O)O", "10.8 µM (active)"),
    ("CC1=NN(c2cc(Cl)c(S(=O)(=O)O)cc2Cl)C(=O)C1N=Nc1ccc(S(=O)(=O)O)cc1 (stereo unspecified)", "18.8 µM (active)"),
    ("Cc1cc(O)cc(C)c1Cl", "7.71 µM (active)"),
    ("O=C(c1ccccc1)c1ccccc1O", "1.05 µM (active)"),
]

I have this compound here, O=C(OCc1ccccc1)c1ccccc1 , and I need its recorded AC50.
20.7 µM (active)

###

- experimentalDetails: TOX21_p53_BLA_p3_viability: Viability Assessment in the Tox21 HCT-116 p53 Agonism Beta-lactamase Assay, Phase 3 (AID 2283593);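 further: cells exposed to compound for 16 h before reading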
Results filed as inconclusive are left out. Calls of active or inactive are those of the source. The calls were made as follows: active = hit-call score of the fitted dose curve at least 0.9, where 1 is the maximum; inconclusive = response in the unintended direction; inactive = score below 0.9.
Select the correct class. Options are active, inactive and nothing else.

Example entries and their recorded answers appear below.
# molecule, categoryLabel
records = [
    ("O[C@@H](c1cc(C(F)(F)F)nc2c(C(F)(F)F)cccc12)[C@H]1CCCCN1", "active"),
    ("C=CCN1CCCC1CNC(=O)c1cc(S(N)(=O)=O)cc(OC)c1OC (stereo unspecified)", "inactive"),
    ("NCC(=O)CCC(=O)O", "inactive"),
    ("COC(=O)[C@@H]1[C@H]2C[C@H]3c4[nH]c5ccccc5c4CCN3C[C@@H]2CC[C@@H]1O", "inactive"),
    ("c1ccc(CC2=NCCN2)cc1", "inactive"),
]

Please state the recorded outcome for this molecule: CC1(C)S[C@@H]2[C@H](NC(=O)C(N)c3ccccc3)C(=O)N2[C@H]1C(=O)OC1OC(=O)c2ccccc21 (stereo partly specified)
inactive

###

- experimentalDetails: CCTE_Simmons_CellTiterGLO_HEK293T: Viability Assessment in CCTE's Assays for Thyroperoxidase (TPO) Inhibition, Simmons Lab (AID 2283665)
Inconclusive results are not listed. Calls of active or inactive are those of the source. The calls were made as follows: active = hit-call score of the fitted dose curve at least 0.9, where 1 is the maximum; inconclusive = response in the unintended direction; inactive = score below 0.9.
Select the correct class. Options are active, inactive and nothing else.

# compound, categoryLabel
records = [
    ("CCCCC(CC)COC(=O)C=Cc1ccc(OC)cc1 (stereo unspecified)", "inactive"),
]

Please state the recorded outcome for this compound: Oc1cccc2ccccc12
inactive

Then Sc1nc2ccccc2s1 ?
inactive

###

- experimentalDetails: IUF_NPC2-5_cytotoxicity_72hr: Cytotoxicity Assessment at 72 hours in the Leibniz Research Institute for Environmental Medicine (IUF) Neural Progenitor Cell Migration and Differentiation Assay for Cytotoxicity (NPC2-5) (AID 2284306);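 further: LDH release into supernatant measured by resorufin fluorescence marking membrane damage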
Results filed as inconclusive are left out. Active and inactive are the calls of the source. The calls were made as follows: active = hit-call score of the fitted dose curve at least 0.9, where 1 is the maximum; inconclusive = response in the unintended direction; inactive = score below 0.9.
Select the correct class. Options are TRUE (active), FALSE (inactive) and nothing else.

Example entries and their recorded answers appear below.
# molecularString, categoryLabel
measured = [
    ("NC(N)=Nc1nc(CSCCC(N)=NS(N)(=O)=O)cs1", "FALSE"),
    ("Cc1c(O)cccc1C(=O)N[C@@H](CSc1ccccc1)[C@H](O)CN1C[C@H]2CCCC[C@H]2C[C@H]1C(=O)NC(C)(C)C", "TRUE"),
    ("C[C@@H]1C[C@H]2[C@@H]3CCC4=CC(=O)C=C[C@]4(C)[C@@]3(F)[C@@H](O)C[C@]2(C)[C@@]1(O)C(=O)CO", "FALSE"),
    ("CC1(C)S[C@@H]2[C@H](NC(=O)[C@H](N)c3ccc(O)cc3)C(=O)N2[C@H]1C(=O)O", "FALSE"),
]

Please state the recorded outcome for this compound: C[C@H](CS)C(=O)N1CCC[C@H]1C(=O)O
FALSE

###

- experimentalDetails: TOX21_p53_BLA_p3_viability: Viability Assessment in the Tox21 HCT-116 p53 Agonism Beta-lactamase Assay, Phase 3 (AID 2283593);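 further: cells exposed to compound for 16 h before reading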
Results filed as inconclusive are left out. Activity calls are given as the source filed them. How the source made its calls: active means hit-call score of the fitted dose curve at least 0.9, where 1 is the maximum; inconclusive means response in the unintended direction; inactive means score below 0.9.
Select the correct class. Options are Yes = active, No = inactive and nothing else.

Example entries and their recorded answers appear below.
# compound, categoryLabel
rows = [
    ("CC1=C(CC(=O)O)c2cc(F)ccc2/C1=C\\c1ccc(S(C)=O)cc1 (stereo unspecified)", "No"),
    ("CC(=O)OC(C)=O", "No"),
    ("O=C1c2ccccc2C(=O)C1c1ccc(Br)cc1", "No"),
]

Please state the recorded outcome for this compound: CC(CCl)OC(C)CCl (stereo unspecified)
No

Then CO[C@@H]1[C@H](OC(=O)/C=C/C=C/C=C/C=C/C(=O)O)CC[C@]2(CO2)[C@H]1[C@@]1(C)O[C@@H]1CC=C(C)C ?
No

Then O=C1Nc2ccc(Cl)cc2[C@@](C#CC2CC2)(C(F)(F)F)O1 ?
No
